Form: system (Cytochrome P450 3A4 (Homo sapiens, UniProt P08684)), quantity (AC50), values below.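 Also: CYP3A4 tested as one member of a cytochrome P450 panel screen.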

Query string: Provide value of AC50 for this record tested with Cytochrome P450 3A4 (Homo sapiens, UniProt P08684): `CC(C)=NO[C@@H](C)c1cc(-c2c(C)cc(C)cc2C)no1`
Sequence (P08684 whole entry): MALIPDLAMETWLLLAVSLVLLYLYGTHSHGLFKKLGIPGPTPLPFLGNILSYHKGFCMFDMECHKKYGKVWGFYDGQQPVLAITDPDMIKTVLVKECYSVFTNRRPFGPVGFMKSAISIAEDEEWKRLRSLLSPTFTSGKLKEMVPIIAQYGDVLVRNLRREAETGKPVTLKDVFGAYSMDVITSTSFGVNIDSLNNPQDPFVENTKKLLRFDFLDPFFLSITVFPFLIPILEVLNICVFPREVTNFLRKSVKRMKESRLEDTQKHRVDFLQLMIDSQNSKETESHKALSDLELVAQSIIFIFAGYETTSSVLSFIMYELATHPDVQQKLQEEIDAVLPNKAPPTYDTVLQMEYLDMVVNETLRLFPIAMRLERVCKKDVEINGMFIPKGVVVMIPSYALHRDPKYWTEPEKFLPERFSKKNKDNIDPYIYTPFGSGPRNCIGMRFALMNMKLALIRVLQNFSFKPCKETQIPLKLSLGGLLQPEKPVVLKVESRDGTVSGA
Result string: 3.16 µM (inconclusive)

Query string: Provide value of AC50 for this record tested with Cytochrome P450 3A4 (Homo sapiens, UniProt P08684): `O=c1c(-c2cccs2)nc2cnc(N3CCOCC3)nc2n1CCc1ccccc1`
Result string: 12.6 µM (inconclusive)

Query string: Provide value of AC50 for this record tested with Cytochrome P450 3A4 (Homo sapiens, UniProt P08684): `Nc1n[nH]c2nc3ccccc3nc12`
Result string: 0.126 µM (inconclusive)

Query string: Provide value of AC50 for this record tested with Cytochrome P450 3A4 (Homo sapiens, UniProt P08684): `C=CCN1C[C@H](C)N([C@@H](c2ccccc2)c2ccc(C(=O)N(CC)CC)cc2)C[C@H]1C`
Result string: 2.51 µM (inconclusive)

Query string: Provide value of AC50 for this record tested with Cytochrome P450 3A4 (Homo sapiens, UniProt P08684): Cc1ccc(C(=O)NC(=S)N2CC(C)OC(C)C2)cc1[N+](=O)[O-] (stereo unspecified)
Result string: 22.4 µM (inconclusive)

Query string: Provide value of AC50 for this record tested with Cytochrome P450 3A4 (Homo sapiens, UniProt P08684): `Cc1cc(C(F)(F)F)n2nc(-c3cnn(C)c3C(F)(F)F)cc2n1`
Result string: 17.8 µM (inconclusive)

Query string: Provide value of AC50 for this record tested with Cytochrome P450 3A4 (Homo sapiens, UniProt P08684): `N#CCCn1c(=O)c(-c2cccs2)nc2cnc(Oc3cccc(Cl)c3)nc21`
Result string: 7.94 µM (inconclusive)

Query string: Provide value of AC50 for this record tested with Cytochrome P450 3A4 (Homo sapiens, UniProt P08684): `Nc1ccc2c3c(cccc13)C(=O)NC2=O`
Result string: 3.16 µM (inconclusive)

Others:
Query string: Provide value of AC50 for this record tested with Cytochrome P450 3A4 (Homo sapiens, UniProt P08684): `Cc1ccc(OCCCC(=O)NCc2ccco2)cc1`
Result string: 17.8 µM (inconclusive)

Query string: Provide value of AC50 for this record tested with Cytochrome P450 3A4 (Homo sapiens, UniProt P08684): Cc1cccc(-n2nnc(C(=O)NC3CCCc4ccccc43)c2N)c1 (stereo unspecified)
Result string: 1.12 µM (inconclusive)

Query string: Provide value of AC50 for this record tested with Cytochrome P450 3A4 (Homo sapiens, UniProt P08684): `Cc1ccc(CS(=O)(=O)CCC(=O)NCCCOC(C)C)cc1`
Result string: 35.5 µM (inconclusive)

====

- TARGET DESC: Voltage-dependent T-type calcium channel subunit alpha-1H (Homo sapiens);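 also: channel activity triggered by adding a high calcium stimulation buffer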
- Sequence (O95180 whole entry): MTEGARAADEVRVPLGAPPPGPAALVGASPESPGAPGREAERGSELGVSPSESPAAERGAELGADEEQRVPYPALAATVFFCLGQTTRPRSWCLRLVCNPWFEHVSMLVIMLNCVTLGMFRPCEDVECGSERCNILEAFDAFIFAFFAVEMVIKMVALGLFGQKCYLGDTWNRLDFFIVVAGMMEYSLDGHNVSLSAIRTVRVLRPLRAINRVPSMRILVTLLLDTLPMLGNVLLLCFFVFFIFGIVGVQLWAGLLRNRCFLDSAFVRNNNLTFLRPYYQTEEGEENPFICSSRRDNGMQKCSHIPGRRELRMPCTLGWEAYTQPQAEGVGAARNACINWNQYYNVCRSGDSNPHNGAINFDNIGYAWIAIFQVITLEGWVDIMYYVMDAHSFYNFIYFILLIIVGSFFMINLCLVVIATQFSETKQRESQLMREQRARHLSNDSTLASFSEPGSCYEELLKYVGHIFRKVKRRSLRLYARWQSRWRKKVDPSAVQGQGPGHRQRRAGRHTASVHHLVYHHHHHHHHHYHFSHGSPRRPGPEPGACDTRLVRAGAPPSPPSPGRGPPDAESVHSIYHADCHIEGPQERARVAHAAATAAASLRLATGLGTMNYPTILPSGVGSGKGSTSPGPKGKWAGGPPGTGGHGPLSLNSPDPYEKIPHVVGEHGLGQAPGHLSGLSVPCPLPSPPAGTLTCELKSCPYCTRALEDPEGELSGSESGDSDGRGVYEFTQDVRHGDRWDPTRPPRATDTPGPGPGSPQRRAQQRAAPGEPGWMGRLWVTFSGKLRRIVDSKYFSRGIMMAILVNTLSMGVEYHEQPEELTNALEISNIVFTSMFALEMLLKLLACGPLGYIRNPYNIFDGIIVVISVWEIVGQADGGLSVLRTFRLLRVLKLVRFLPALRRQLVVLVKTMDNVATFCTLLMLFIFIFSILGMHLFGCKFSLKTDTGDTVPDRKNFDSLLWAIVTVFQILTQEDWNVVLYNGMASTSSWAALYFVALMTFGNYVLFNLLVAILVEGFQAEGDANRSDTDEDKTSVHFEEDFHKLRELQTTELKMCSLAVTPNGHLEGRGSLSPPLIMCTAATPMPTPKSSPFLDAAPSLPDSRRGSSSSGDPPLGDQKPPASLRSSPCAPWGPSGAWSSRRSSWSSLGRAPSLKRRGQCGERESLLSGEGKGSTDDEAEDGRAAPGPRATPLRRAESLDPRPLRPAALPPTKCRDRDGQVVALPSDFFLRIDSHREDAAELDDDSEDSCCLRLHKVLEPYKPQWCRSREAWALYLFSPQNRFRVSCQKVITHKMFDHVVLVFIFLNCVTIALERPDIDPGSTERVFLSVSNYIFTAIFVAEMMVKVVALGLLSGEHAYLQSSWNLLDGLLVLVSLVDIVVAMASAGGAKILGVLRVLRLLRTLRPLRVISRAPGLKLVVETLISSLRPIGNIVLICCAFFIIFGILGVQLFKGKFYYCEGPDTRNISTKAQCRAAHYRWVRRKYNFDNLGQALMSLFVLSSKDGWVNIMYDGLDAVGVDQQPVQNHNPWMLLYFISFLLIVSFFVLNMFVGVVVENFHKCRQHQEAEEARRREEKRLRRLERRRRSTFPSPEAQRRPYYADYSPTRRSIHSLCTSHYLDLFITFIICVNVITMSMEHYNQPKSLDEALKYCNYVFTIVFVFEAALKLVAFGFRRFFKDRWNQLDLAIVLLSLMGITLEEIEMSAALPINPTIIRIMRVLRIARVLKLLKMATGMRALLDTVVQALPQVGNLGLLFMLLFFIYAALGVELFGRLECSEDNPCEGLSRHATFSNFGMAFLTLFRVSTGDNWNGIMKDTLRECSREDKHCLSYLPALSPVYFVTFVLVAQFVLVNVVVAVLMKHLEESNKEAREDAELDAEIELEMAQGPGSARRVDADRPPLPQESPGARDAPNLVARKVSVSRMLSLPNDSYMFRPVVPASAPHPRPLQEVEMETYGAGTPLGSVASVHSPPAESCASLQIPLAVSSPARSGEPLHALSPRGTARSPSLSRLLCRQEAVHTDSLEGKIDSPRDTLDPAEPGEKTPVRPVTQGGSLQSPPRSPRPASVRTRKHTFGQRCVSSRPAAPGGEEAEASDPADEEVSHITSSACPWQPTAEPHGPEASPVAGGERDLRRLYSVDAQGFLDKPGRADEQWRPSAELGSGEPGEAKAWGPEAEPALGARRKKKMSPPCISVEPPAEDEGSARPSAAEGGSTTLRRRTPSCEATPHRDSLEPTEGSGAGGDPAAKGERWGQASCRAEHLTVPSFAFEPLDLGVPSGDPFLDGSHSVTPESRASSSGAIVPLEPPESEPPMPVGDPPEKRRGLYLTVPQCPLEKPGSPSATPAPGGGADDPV
- Type: functional
Active and inactive are the calls of the source.
ASSAY METRIC: EC50

Query string: Query: EC50; subject: `Cc1cccc(OCCCSc2nc3ccc(C)cc3[nH]2)c1`
Result string: 3.92 µM (active)

Query string: Query: EC50; subject: `Cc1ccccc1NS(=O)(=O)c1cc(C(=O)Nc2ccccc2-c2ccccc2)ccc1Cl`
Result string: 3.95 µM (active)

Query string: Query: EC50; subject: `Cc1ccc(SCCC(=O)NCCSCc2ccccc2C)cc1`
Result string: 2.87 µM (active)

Others:
Query string: Query: EC50; subject: `COc1cccc(NC(=O)C2CCN(Cc3cnn(-c4ccccc4)c3-n3cccc3)CC2)c1`
Result string: 2.29 µM (active)

Query string: Query: EC50; subject: `Cc1ccc(N2CCN(C(=O)CCc3nc4ccccc4[nH]3)CC2)c(C)c1`
Result string: 3.27 µM (active)

Query string: Query: EC50; subject: CC(C)(C)n1nnnc1C(c1cccs1)N(Cc1ccc(Cl)cc1)CC1CCCO1 (configuration not stated)
Result string: 8.19 µM (active)

Query string: Query: EC50; subject: `CCN(CC)S(=O)(=O)c1ccc2oc(C(=O)NCc3ccc(F)cc3)c(C)c2c1`
Result string: 3.18 µM (active)
